# targetDesc: human CCR2 (Homo sapiens)
# Sequence (P41597 whole entry): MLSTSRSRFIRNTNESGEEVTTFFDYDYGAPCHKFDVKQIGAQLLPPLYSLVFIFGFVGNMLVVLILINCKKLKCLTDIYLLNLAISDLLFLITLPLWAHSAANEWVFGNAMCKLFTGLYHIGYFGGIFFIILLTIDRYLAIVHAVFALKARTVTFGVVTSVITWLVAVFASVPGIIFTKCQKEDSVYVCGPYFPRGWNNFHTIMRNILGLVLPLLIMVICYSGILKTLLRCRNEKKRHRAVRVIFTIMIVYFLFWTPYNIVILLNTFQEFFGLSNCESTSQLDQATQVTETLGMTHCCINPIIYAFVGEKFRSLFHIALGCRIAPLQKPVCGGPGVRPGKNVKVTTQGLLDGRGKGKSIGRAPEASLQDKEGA
# runDescription: CCR2 functional calcium assay (FLIPR calcium flux, hMCP-1 challenge)
# Assay type: cell-based
# Design: expressed in transfected cells; host or cells: HEK293 EBNA cells
# studyConditions: HEK293 EBNA cells transfected with human CCR2, hMCP-1 challenge; read-out: Functional CCR2 fKi

>  <chemicalSmiles>
CC(C)c1nc2ccnn2c(O)c1Cc1ccc(Cl)c(F)c1

>  <Ki>
< 10 nM

$$$$
>  <chemicalSmiles>
Cc1ccc(Cc2c(C)nc3c(C(=O)NCCc4ccccn4)cnn3c2O)cc1

>  <Ki>
100 to 1000 nM

$$$$
>  <chemicalSmiles>
Oc1c(Cc2ccc(OC(F)(F)F)cc2)c(C2CC2)nc2ccnn12

>  <Ki>
10 to 100 nM

$$$$
>  <chemicalSmiles>
Cc1nc2c(C(=O)NCCOc3ccccc3)cnn2c(O)c1Cc1ccccc1

>  <Ki>
100 to 1000 nM

$$$$
>  <chemicalSmiles>
CCc1nc2ccnn2c(O)c1Cc1ccc(F)c(Cl)c1

>  <Ki>
< 10 nM

$$$$
>  <chemicalSmiles>
CCOC(=O)c1nc2ccnn2c(O)c1Cc1cccc(Cl)c1

>  <Ki>
< 10 nM

$$$$
>  <chemicalSmiles>
COCCNC(=O)c1cnn2c(O)c(Cc3cccc(Cl)c3)c(C)nc12

>  <Ki>
100 to 1000 nM

$$$$
>  <chemicalSmiles>
CC(C)OC(=O)c1nc2ccnn2c(O)c1Cc1ccc(Cl)c(F)c1

>  <Ki>
< 10 nM

$$$$
>  <chemicalSmiles>
CC(C)c1nc2ccnn2c(O)c1Oc1ccc(Br)cc1

>  <Ki>
< 10 nM

$$$$

The reported measurements were obtained from patent US20130252951A1.
